This collection of values is drawn from ChEMBL document CHEMBL1131248.

Test system: Rattus norvegicus
Assay: Half-life (t1/2) in rat following iv administration
Format: ADME, organism-based
Settings: in vivo
Examples of compounds with documented T1/2 follow.
Quote the value and follow it with the unit of measurement.

Solved cases below.
Req: If you can, please state the reported T1/2 value of COc1cc(OC2CCN(Cc3ccc[n+]([O-])c3C(F)(F)F)CC2)c(F)cc1C(=O)N1CCC(N2C(=O)OCc3ccccc32)CC1 .
Resp: 1.1 h

Req: If you can, please state the reported T1/2 value of COc1cc(OC2CCN([C@H]3CCCc4c3ccc[n+]4[O-])CC2)c(F)cc1C(=O)N1CCC(N2C(=O)OCc3ccccc32)CC1 .
Resp: 0.95 h

Req: If you can, please state the reported T1/2 value of COc1cc(OC2CCN(Cc3ccc[n+]([O-])c3C)CC2)c(F)cc1C(=O)N1CCC(N2C(=O)OCc3ccccc32)CC1 .
Resp: 1.18 h

// next entry
Req: If you can, please state the reported T1/2 value of COc1cc(OC2CCN(Cc3ccc[n+]([O-])c3C)CC2)ccc1C(=O)N1CCC(N2C(=O)OCc3ccccc32)CC1 .
Resp: 1.87 h
